Target: CENPC_C291 (Homo sapiens)
Construct: endogenous in cells; host or cells: 22Rv1
Sequence (Q03188 whole entry): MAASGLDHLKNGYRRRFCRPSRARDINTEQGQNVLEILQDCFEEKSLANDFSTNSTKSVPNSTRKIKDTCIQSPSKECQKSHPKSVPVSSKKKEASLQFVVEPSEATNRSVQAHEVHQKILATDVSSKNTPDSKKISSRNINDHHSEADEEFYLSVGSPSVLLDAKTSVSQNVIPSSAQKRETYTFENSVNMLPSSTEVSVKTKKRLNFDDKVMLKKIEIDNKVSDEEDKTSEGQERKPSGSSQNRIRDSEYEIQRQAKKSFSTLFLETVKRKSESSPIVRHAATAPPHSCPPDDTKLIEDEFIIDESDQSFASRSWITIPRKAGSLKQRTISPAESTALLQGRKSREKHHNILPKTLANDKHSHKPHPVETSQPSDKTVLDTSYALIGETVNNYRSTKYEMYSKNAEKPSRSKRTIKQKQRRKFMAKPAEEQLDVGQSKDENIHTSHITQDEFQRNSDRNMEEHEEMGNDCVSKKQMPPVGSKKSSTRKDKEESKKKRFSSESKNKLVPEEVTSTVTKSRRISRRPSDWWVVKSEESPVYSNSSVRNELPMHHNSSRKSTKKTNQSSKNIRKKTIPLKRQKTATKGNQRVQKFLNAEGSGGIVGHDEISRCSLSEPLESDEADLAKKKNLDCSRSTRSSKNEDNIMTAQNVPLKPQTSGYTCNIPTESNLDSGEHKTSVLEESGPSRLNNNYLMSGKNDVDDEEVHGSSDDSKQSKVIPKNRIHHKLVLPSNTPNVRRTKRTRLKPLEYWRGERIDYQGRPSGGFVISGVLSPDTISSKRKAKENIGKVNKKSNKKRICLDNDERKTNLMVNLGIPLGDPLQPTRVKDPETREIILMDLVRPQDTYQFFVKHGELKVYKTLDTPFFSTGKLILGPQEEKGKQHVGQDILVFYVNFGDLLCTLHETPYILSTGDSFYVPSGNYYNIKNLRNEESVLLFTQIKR
Test: IA-DTB cysteine engagement
Format: binding
Conditions: 22Rv1 cells, 20 μM probe, 1 h, relative to DMSO
value_type: % engagement CENPC_C291 (%)

[[record]]
compound = "C=CC(=O)N1C[C@H](c2ccc(Br)cc2)[C@H]1C(=O)Nc1cccc2cccnc12 [MY-3A]"
target_of_assay = "CENPC_C291 (Homo sapiens)"
value_type = "% engagement CENPC_C291"
result_number = 28


a = C=CC(=O)N1C[C@H](c2ccc(Br)cc2)[C@H]1C(=O)Nc1cccc2cccnc12 [MY-3B]
b = C=CC(=O)N1C[C@@H](c2ccc(Br)cc2)[C@H]1C(=O)Nc1cccc2cccnc12
Prompt line: Quick one: lower % engagement CENPC_C291, a or b ? # respond with the chosen item's label
Response line: b
(b: −1.5%, a: 82.5%)

###

Biological target: APOOL_C74 (Homo sapiens, UniProt Q6UXV4)
Construct: endogenous in cells; host or cells: 22Rv1
Sequence (Q6UXV4 28-268): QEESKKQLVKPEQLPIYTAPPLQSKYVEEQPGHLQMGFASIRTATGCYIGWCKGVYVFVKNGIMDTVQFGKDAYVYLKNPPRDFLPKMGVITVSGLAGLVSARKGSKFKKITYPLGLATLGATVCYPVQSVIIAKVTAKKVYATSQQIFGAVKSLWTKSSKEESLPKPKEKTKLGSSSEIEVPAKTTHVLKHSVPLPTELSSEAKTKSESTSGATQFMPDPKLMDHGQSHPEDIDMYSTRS
Assay: IA-DTB cysteine engagement
Type: binding
Conditions: 22Rv1 cells, 20 μM probe, 1 h, relative to DMSO
Description: Sample preparation: Cells (adherent: 15 cm dishes, suspension: 2 million cells/mL) were treated with electrophilic probes in situ for indicated times and concentrations, washed with ice-cold PBS, and flash frozen in liquid nitrogen. […] Whole cell lysates protein content was measured using a standard DC protein assay (Bio-Rad) and 500 μL (2 mg/mL protein content) were treated with 5 μL of 10 mM 1A-DTB (in DMSO) for 1 h at ambient temperature with occasional vortexing. […]
value_type: % engagement APOOL_C74 (%)

[[record]]
compound = "C=CC(=O)N1C[C@H](c2ccc(Br)cc2)[C@H]1C(=O)Nc1cccc2cccnc12 [MY-3A]"
value_type = "% engagement APOOL_C74"
result_number = 52

[[record]]
compound = "C=CC(=O)N1C[C@H](c2ccc(Br)cc2)[C@H]1C(=O)Nc1cccc2cccnc12 [MY-3B]"
value_type = "% engagement APOOL_C74"
result_number = 71.25

[[record]]
compound = "C=CC(=O)N1C[C@H](c2ccc(Br)cc2)[C@@H]1C(=O)Nc1cccc2cccnc12 [MY-1B]"
value_type = "% engagement APOOL_C74"
result_number = 64.5

[[record]]
compound = "C=CC(=O)N1C[C@@H](c2ccc(Br)cc2)[C@H]1C(=O)Nc1cccc2cccnc12 [MY-1A]"
value_type = "% engagement APOOL_C74"
result_number = 52.75


###

Biological target: LIMK1_C349 (Homo sapiens, UniProt P53667)
Construct: endogenous in cells; host or cells: 22Rv1
Sequence (P53667 whole entry): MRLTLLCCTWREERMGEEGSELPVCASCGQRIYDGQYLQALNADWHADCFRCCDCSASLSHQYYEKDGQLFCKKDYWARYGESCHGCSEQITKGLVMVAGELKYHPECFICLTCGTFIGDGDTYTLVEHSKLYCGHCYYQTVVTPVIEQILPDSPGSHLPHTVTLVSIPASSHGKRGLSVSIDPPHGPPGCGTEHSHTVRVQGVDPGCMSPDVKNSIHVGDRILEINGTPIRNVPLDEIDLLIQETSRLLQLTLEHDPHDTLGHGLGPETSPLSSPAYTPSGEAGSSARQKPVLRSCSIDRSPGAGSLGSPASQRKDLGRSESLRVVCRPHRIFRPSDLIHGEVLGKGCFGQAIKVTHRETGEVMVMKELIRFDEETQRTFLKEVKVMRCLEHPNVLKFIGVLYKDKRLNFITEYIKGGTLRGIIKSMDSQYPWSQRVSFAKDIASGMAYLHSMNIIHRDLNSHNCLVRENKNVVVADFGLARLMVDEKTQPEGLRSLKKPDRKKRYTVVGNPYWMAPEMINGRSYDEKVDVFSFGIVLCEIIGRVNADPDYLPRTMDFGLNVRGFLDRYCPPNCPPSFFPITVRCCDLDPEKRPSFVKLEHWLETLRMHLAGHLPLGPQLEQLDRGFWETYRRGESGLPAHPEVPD
Assay: IA-DTB cysteine engagement
Assay type: binding
Settings: 22Rv1 cells, 20 μM probe, 1 h, relative to DMSO
value_type: % engagement LIMK1_C349 (%)

[[record]]
compound = "C=CC(=O)N1C[C@@H](c2ccc(Br)cc2)[C@H]1C(=O)Nc1cccc2cccnc12"
target_of_assay = "LIMK1_C349 (Homo sapiens, UniProt P53667)"
result_number = 45.25

[[record]]
compound = "C=CC(=O)N1C[C@H](c2ccc(Br)cc2)[C@H]1C(=O)Nc1cccc2cccnc12 [MY-3B]"
target_of_assay = "LIMK1_C349 (Homo sapiens, UniProt P53667)"
result_number = 43.25


a = C=CC(=O)N1C[C@H](c2ccc(Br)cc2)[C@H]1C(=O)Nc1cccc2cccnc12 [MY-3A]
b = C=CC(=O)N1C[C@H](c2ccc(Br)cc2)[C@@H]1C(=O)Nc1cccc2cccnc12
Prompt line: Quick one: lower % engagement LIMK1_C349, a or b ? # respond with the chosen item's label
Response line: a
